experiment: Solubility determination; assay type: physicochemical; settings: pH 2.5, aqueous buffer, thermodynamic from solid, Solubility in water
Endpoint: solubility (µM)
Kindly answer with a numeric value in µM, unit omitted.

The compound O=C(O)Cc1ccccc1Nc1c(Cl)cccc1Cl [DA, Diclofenac Acid, reference compound] showed solubility equal to 3.4

----------
experiment: Octanol/water partition coefficient determination; assay type: physicochemical; conditions: octanol/0.02 M phosphate buffer pH 2.5, pH 2.5
Endpoint: logP at 24 h
Reply briefly: the number, and no unit.

The compound O=C(O)Cc1ccccc1Nc1c(Cl)cccc1Cl [DA, Diclofenac Acid, reference compound] showed logP at 24 h equal to 4.57
